Items are presented alongside their recorded koff.
Target: T1, human 5T4-His protein (human, UniProt Q13641 32-355)
T1 construct: also called recombinant 5T4 protein (human 5T4-his tag); human 5T4 protein; not shown: His tag
T1 sequence (looked up): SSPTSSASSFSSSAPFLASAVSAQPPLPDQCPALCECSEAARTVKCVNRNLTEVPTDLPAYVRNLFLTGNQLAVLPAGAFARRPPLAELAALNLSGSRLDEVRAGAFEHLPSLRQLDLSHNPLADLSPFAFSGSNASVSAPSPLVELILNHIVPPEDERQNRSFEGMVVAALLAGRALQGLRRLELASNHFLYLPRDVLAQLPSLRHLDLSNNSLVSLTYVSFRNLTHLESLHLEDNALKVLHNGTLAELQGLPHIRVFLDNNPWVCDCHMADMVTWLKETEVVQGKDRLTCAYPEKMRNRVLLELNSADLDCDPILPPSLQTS
Assay: SPR Biacore, Protein A capture

>  <Binder>
Hu14G12-10 (antibody, V domains shown, humanized) VH: EVQLVQSGAEVKKPGATVKISCKVSGYAFSSSWMNWVKQAPGKGLEWIGRIYREDGHTNYNGKFKGRATITADTSTTTAYMELSSLRSEDTAVYFCANGGAMDYWGQGTLVTVSS VL: DIQMTQSPSSLSASVGDRVTITCRASQDISNYLNWYQQKPGKAPKLLIYYTSRLHSGVPSRFSGSGSGTDYTFTISSLQPEDIATYFCQQDNTLPWTFGGGTKLEIK

>  <Result Units>
s⁻¹

>  <koff>
0.000512

$$$$
>  <Binder>
Hu14G12-5 (antibody, V domains shown, humanized) VH: EVQLVQSGAEVKKPGATVKISCKVSGYAFSSSWMNWVQQAPGKGLEWIGRIYREDGHTNYNGKFKGRVTITADTSTDTAYMELSSLRSEDTAVYFCANGGAMDYWGQGTLVTVSS VL: DIQMTQSPSSLSASVGDRVTITCRASQDISNYLNWYQQKPGKAPKLLIYYTSRLHSGVPSRFSGSGSGTDFTFTISSLQPEDIATYYCQQDNTLPWTFGGGTKLEIK

>  <Result Units>
s⁻¹

>  <koff>
0.00146

$$$$
>  <Binder>
Hu14G12-28 (antibody, V domains shown, humanized; also called parental Hu14G12-28 antibody) VH: QVQLVQSGAEVKKPGASVKVSCKASGYAFSSSWMNWVRQAPGQGLEWMGRIYREDGHTNYNGKFKGRVTMTADKSITTAYMELSRLRSDDTAVYYCANGGAMDYWGQGTLVTVSS VL: DIQMTQSPSSLSASVGDRVTITCRASQDISNYLNWYQQKPGKAPKLLIYYTSRLHSGVPSRFSGSGSGTDYTFTISSLQPEDIATYFCQQDNTLPWTFGGGTKVEIK

>  <Result Units>
s⁻¹

>  <koff>
0.000714

$$$$
>  <Binder>
Hu14G12-8 (antibody, V domains shown, humanized) VH: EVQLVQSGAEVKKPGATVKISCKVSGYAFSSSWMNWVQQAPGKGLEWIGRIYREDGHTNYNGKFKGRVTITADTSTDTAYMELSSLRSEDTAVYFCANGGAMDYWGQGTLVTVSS VL: DIQMTQSPSSLSASVGDRVTISCRASQDISNYLNWYQQKPGKTVKLLIYYTSRLHSGVPSRFSGSGSGTDYTFTISSLQPEDIATYFCQQDNTLPWTFGGGTKLEIK

>  <Result Units>
s⁻¹

>  <koff>
0.000464

$$$$
>  <Binder>
Hu14G12-7 (antibody, V domains shown, humanized) VH: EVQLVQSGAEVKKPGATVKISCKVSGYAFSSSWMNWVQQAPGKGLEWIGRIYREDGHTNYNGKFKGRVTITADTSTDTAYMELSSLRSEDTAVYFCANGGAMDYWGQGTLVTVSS VL: DIQMTQSPSSLSASVGDRVTISCRASQDISNYLNWYQQKPGKAVKLLIYYTSRLHSGVPSRFSGSGSGTDFTFTISSLQPEDIATYFCQQDNTLPWTFGGGTKLEIK

>  <Result Units>
s⁻¹

>  <koff>
0.000846

$$$$
>  <Binder>
Hu14G12-12 (antibody, V domains shown, humanized) VH: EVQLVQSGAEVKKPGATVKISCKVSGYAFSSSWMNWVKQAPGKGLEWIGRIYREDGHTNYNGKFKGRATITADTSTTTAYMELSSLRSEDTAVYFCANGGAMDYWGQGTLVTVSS VL: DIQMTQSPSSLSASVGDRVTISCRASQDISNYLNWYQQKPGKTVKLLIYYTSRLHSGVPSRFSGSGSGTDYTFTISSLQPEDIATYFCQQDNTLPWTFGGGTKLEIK

>  <Result Units>
s⁻¹

>  <koff>
0.000655

$$$$
>  <Binder>
Hu14G12-15 (antibody, V domains shown, humanized) VH: EVQLVQSGAEVKKPGATVKISCKASGYAFSSSWMNWVKQAPGKGLEWIGRIYREDGHTNYNGKFKGRATITADTSTTTAYMELSSLRSEDSAVYFCANGGAMDYWGQGTLVTVSS VL: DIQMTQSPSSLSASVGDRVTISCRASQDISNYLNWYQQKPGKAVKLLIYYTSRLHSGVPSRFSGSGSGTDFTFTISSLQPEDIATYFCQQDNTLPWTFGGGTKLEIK

>  <Result Units>
s⁻¹

>  <koff>
0.000837

$$$$
>  <Binder>
Hu14G12-11 (antibody, V domains shown, humanized) VH: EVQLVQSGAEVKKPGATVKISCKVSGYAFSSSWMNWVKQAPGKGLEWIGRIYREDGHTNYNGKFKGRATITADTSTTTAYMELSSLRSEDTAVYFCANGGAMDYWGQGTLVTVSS VL: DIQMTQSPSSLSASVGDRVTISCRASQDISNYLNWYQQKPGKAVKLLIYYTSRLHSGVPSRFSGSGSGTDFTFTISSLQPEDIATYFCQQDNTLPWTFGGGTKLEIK

>  <Result Units>
s⁻¹

>  <koff>
0.000523

$$$$
>  <Binder>
Hu14G12-9 (antibody, V domains shown, humanized) VH: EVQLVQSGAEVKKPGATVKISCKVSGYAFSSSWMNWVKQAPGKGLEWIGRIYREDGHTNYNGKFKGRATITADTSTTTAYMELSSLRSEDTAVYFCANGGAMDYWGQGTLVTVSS VL: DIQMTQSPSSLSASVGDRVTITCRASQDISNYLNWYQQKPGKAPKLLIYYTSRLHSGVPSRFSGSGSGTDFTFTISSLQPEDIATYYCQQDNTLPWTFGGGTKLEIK

>  <Result Units>
s⁻¹

>  <koff>
0.00107

$$$$
>  <Binder>
Hu14G12-2 (antibody, V domains shown, humanized) VH: EVQLVQSGAEVKKPGATVKISCKVSGYAFSSSWMNWVQQAPGKGLEWMGRIYREDGHTNYNGKFKGRVTITADTSTDTAYMELSSLRSEDTAVYYCATGGAMDYWGQGTLVTVSS VL: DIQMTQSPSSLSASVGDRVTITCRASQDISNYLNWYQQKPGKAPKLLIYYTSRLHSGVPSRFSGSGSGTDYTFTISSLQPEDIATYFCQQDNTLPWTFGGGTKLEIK

>  <Result Units>
s⁻¹

>  <koff>
0.00436

$$$$
